All values here come from ChEMBL document CHEMBL2203079.

Test system: Canavalia ensiformis
Experiment: Inhibition of jack bean alpha-mannosidase assessed as p-nitrophenylglycoside substrate hydrolysis at 1 mM
Observable: inhibition

These solved cases illustrate the format of a correct answer.
O[C@H]1[C@@H](O)CN[C@@H]1CN[C@H](c1ccccc1)[C@@H](O)c1ccccc1	88%
O[C@H]1[C@@H](O)CN[C@@H]1CNCc1ccco1	49%
O[C@H]1[C@@H](O)CN[C@@H]1CN[C@@H](COCc1ccccc1)c1ccccc1	92%

The recorded inhibition for C[C@H](O)NC[C@H]1NC[C@H](O)[C@@H]1O is 66%

----------
Target Desc: Endoplasmic reticulum mannosyl-oligosaccharide 1,2-alpha-mannosidase (Homo sapiens, UniProt Q9UKM7)
Sequence (Q9UKM7 whole entry): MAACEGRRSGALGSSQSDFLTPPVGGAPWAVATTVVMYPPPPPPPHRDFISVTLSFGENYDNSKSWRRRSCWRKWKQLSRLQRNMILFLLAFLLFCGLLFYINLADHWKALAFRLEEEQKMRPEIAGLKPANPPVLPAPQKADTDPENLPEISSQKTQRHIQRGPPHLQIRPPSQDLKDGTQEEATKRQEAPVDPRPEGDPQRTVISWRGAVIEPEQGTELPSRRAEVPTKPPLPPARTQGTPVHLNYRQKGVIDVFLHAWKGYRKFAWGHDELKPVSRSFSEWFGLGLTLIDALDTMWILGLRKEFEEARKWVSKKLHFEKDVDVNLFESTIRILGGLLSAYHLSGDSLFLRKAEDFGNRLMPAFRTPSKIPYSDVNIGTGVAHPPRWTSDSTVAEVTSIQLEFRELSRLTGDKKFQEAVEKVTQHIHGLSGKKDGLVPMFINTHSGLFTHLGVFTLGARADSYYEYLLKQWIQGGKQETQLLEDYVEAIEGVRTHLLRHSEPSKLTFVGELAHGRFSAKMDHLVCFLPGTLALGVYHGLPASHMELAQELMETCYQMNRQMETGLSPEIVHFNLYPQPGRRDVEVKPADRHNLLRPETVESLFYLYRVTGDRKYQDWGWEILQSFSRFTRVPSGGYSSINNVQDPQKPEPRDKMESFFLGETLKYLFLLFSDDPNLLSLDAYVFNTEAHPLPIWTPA
# pKi per record follows
Value format note: pKi is -log10 of concentration (mol/L); just state the number.

COC[C@H](NC[C@H]1NC[C@H](O)[C@@H]1O)c1ccccc1	4.92
O[C@H]1[C@@H](O)CN[C@@H]1CN[C@@H](COCOc1ccccc1F)c1ccccc1	6.04
O[C@H]1[C@@H](O)CN[C@@H]1CNC1CCCC1	4.17
C[C@H](O)NC[C@H]1NC[C@H](O)[C@@H]1O	3.31
O[C@H]1[C@@H](O)CN[C@@H]1CN[C@@H](COCc1ccccc1)c1ccccc1	6.64

Reported pKi for OC[C@H](NC[C@H]1N[C@H](CO)[C@H](O)[C@@H]1O)c1ccccc1 was 4.61

Entry under test: CC(=O)N(CNC[C@H]1NC[C@H](O)[C@@H]1O)Cc1ccccc1 . Its pKi was 4.35

Reported pKi for OC(O)C[C@H]1NC[C@H](O)[C@@H]1O was 3.54

----------
Target Desc: Alpha-mannosidase 2 (Homo sapiens, UniProt Q16706)
Sequence (Q16706 whole entry): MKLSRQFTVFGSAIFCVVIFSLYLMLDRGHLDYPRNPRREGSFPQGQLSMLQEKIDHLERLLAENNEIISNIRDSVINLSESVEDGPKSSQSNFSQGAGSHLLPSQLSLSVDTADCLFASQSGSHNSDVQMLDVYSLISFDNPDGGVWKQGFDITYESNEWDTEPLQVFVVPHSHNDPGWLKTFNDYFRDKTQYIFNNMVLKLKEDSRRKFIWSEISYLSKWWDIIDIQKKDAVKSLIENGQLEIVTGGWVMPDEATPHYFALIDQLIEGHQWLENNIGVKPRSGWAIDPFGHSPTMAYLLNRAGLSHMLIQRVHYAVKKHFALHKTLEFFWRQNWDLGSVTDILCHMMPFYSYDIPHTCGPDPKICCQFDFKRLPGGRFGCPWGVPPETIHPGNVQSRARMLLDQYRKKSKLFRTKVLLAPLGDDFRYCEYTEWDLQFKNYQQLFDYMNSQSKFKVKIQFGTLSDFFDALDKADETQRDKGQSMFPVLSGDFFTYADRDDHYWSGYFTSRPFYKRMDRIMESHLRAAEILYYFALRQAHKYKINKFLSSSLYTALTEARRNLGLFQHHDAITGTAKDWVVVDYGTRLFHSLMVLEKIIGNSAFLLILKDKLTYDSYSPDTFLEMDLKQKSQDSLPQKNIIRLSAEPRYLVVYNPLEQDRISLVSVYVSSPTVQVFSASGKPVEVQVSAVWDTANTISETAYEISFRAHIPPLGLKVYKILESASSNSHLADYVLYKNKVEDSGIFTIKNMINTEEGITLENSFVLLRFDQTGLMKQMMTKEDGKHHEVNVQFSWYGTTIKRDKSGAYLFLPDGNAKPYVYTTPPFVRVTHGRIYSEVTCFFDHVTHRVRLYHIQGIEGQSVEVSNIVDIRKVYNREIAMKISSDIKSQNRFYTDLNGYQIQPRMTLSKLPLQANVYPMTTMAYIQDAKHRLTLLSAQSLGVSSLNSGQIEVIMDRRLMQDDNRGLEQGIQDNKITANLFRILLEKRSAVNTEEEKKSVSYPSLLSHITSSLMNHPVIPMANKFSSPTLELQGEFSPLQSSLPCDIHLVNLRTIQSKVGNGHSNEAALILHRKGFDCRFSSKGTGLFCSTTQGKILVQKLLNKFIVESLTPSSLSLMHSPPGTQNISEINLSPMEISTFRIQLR
Observable: Ki (µM)
Please respond with the number in µM and leave the unit unwritten.

Use these answered entries as a reference point.
C[C@H](O)NC[C@H]1NC[C@H](O)[C@@H]1O	683
O[C@H]1[C@@H](O)CN[C@@H]1CN[C@@H](COCc1ccccc1)c1ccccc1	68.3
O[C@H]1[C@@H](O)CN[C@@H]1CN[C@H](c1ccccc1)[C@@H](O)c1ccccc1	7.77
CC(NC[C@H]1NC[C@H](O)[C@@H]1O)C(O)(c1ccccc1)c1ccccc1 (stereo not given in full)	80.8
O[C@H]1[C@@H](O)CN[C@@H]1CN[C@@H](c1ccccc1)[C@H](O)c1ccccc1	25.9

Query O[C@@H]1CNC[C@@H]1O yields Ki of 531

Input OC[C@H](NC[C@H]1NC[C@H](O)[C@@H]1O)c1ccccc1 . Output Ki: 26.9

----------
Tested on: Prunus dulcis
Experiment: Inhibition of almond alpha-mannosidase assessed as p-nitrophenylglycoside substrate hydrolysis at 1 mM
Observable: inhibition

Answered cases to consult:
OC[C@@H](NC[C@H]1NC[C@H](O)[C@@H]1O)c1ccccc1	55%
CC(NC[C@H]1NC[C@H](O)[C@@H]1O)c1ccccc1 (some centres not stated)	48%
OC[C@H](NC[C@H]1N[C@H](CO)[C@H](O)[C@@H]1O)c1ccccc1	96%
COC[C@H](NC[C@H]1NC[C@H](O)[C@@H]1O)c1ccccc1	63%

Now consider the entry below.
Item: O[C@H]1[C@@H](O)CN[C@@H]1CNCn1ccnc1 | inhibition: 59%

----------
Catalogue of compounds with associated Ki
Target Desc: Endoplasmic reticulum mannosyl-oligosaccharide 1,2-alpha-mannosidase (Homo sapiens)
Sequence (Q9UKM7 whole entry): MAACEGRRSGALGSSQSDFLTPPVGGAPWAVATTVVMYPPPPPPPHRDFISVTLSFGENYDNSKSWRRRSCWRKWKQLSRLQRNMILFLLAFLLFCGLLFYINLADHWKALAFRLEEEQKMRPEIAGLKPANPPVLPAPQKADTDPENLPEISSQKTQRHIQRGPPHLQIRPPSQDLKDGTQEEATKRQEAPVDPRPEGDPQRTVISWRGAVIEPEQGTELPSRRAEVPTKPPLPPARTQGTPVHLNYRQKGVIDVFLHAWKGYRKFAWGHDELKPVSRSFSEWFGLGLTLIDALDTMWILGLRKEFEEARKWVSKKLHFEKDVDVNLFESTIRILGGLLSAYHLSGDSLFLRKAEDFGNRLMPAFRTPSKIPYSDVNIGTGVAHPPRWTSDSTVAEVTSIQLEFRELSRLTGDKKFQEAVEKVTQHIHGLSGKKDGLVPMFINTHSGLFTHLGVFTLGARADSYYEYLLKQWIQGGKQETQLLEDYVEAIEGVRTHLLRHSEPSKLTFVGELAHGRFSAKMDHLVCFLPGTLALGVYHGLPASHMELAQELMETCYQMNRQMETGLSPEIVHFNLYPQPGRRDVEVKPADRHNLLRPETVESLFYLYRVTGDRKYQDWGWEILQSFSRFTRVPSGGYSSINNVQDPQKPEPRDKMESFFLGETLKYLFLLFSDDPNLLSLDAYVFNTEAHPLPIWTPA
// unit must come after the numeric part

Please review the entries below; each comes with its answer.
O=C(NC[C@H](NC[C@H]1NC[C@H](O)[C@@H]1O)c1ccccc1)c1ccccc1Br	0.16 µM
O[C@@H]1CNC[C@@H]1O	3.24 µM
OCC(O)[C@H]1NC[C@H](O)[C@@H]1O (stereo partly specified)	169 µM
CC(NC[C@H]1NC[C@H](O)[C@@H]1O)c1ccccc1 (stereo partly specified)	28.1 µM
O[C@H]1[C@@H](O)CN[C@@H]1CNCc1ccccc1	35 µM

Measured Ki, CC(NC[C@H]1NC[C@H](O)[C@@H]1O)C(O)(c1ccccc1)c1ccccc1 (stereo partly specified) : 27.1 µM
